# System: B. malayi
# Test name: Nematicidal activity of tween-based emulsions against microfilarial nematodes
# Format: cell-based, Brugia malayi
# Test context: 24 hrs post-inoculation, 0.005%
Each item that follows carries a reported percentage of non-motile microfilaria.
Entry rule: numbers only, all in %.

Answered cases to consult:
Compound	Target or test system	Readout number
CCCCCCC(O)C/C=C/CCCCCCCC(=O)OC (stereo not shown)	B. malayi	100
CCCCC[C@H]1O[C@H]1C/C=C\CCCCCCCC(=O)OC	B. malayi	66
CCCCCCCC/C=C\CCCCCCCC(=O)OC [Oleic Acid (C18-methyl ester), oleic acid methyl ester, reference compound]	B. malayi	0

What value of percentage of non-motile microfilaria has been recorded for this entry: CCCCCCC(O)C/C=C\CCCCCCCC(=O)OC (stereo not shown)
100

Where these numbers come from: patent US6903052B2
